The following compounds are listed with their measured IC50 values.
measurement.target: tankyrase 2 (TNKS2) (Homo sapiens)

compound	IC50
CN1CCN(c2ccc(-c3ccc(-c4n[nH]cc4C4NC(=O)c5ccccc5N4C)cc3F)cc2)CC1 (centres unmarked)	5 to 20 nM
CN1c2ccccc2C(=O)NC1c1c[nH]nc1-c1ccccc1 (centres unmarked)	< 5 nM
CCOC(=O)Cc1ccc(-c2cccc(-c3n[nH]cc3C3NC(=O)c4ccccc4N3C)c2)cc1 (centres unmarked)	20 to 50 nM
CN1c2ccccc2C(=O)NC1c1c[nH]nc1-c1ccc(Br)c(F)c1 (centres unmarked)	< 5 nM
CN1c2ccccc2C(=O)NC1c1c[nH]nc1-c1cccc(Cl)c1 (centres unmarked)	5 to 20 nM
CN1c2ccccc2C(=O)NC1c1c[nH]nc1-c1ccc(OC(F)(F)F)cc1 (centres unmarked)	5 to 20 nM
CN1c2ccccc2C(=O)NC1c1c[nH]nc1-c1cccc(F)c1 (centres unmarked)	5 to 20 nM
CN1c2ccccc2C(=O)NC1c1c[nH]nc1-c1ccc(OCC(F)(F)F)cc1 (centres unmarked)	5 to 20 nM
Cc1cccc2c1NC(c1c[nH]nc1-c1ccc(OCC(F)(F)F)cc1)NC2=O (centres unmarked)	< 5 nM
CN1c2ccccc2C(=O)NC1c1c[nH]nc1-c1cccc(Br)c1 (centres unmarked)	5 to 20 nM
CN1c2ccccc2C(=O)NC1c1c[nH]nc1-c1ccc(C#N)cc1 (centres unmarked)	5 to 20 nM
CN1c2ccccc2C(=O)NC1c1c[nH]nc1-c1ccc(OCc2ccccc2)c(F)c1 (centres unmarked)	< 5 nM
Cc1cccc2c1NC(c1n[nH]nc1-c1ccc(OCC(F)(F)F)cc1)NC2=O (centres unmarked)	5 to 20 nM
CN1c2ccccc2C(=O)NC1c1c[nH]nc1-c1ccc(NC(=O)c2ccccc2)cc1 (centres unmarked)	< 5 nM
COc1ccc(-c2n[nH]cc2C2NC(=O)c3cccc4c3N2CC4)cc1 (centres unmarked)	5 to 20 nM
CN1c2ccccc2C(=O)NC1c1c[nH]nc1-c1ccc(-c2cccc(O)c2)cc1 (centres unmarked)	5 to 20 nM
O=C1NC(c2n[nH]nc2-c2ccc(OCC(F)F)cc2)N2CCc3cccc1c32 (centres unmarked)	5 to 20 nM
COc1ccc(-c2n[nH]nc2C2NC(=O)c3ccccc3N2)cc1 (centres unmarked)	< 5 nM
CN1CCN(c2ccc(-c3cccc(-c4n[nH]nc4C4NC(=O)c5ccccc5N4C)c3)cc2)CC1 (centres unmarked)	5 to 20 nM
CN1CCN(c2ccc(-c3ccc(-c4n[nH]cc4C4NC(=O)c5ccccc5N4C)cc3)cc2)CC1 (centres unmarked)	5 to 20 nM
CCOc1ccc(-c2n[nH]nc2C2NC(=O)c3cccc4c3N2CC4)cc1 (centres unmarked)	5 to 20 nM
CN1c2ccccc2C(=O)NC1c1n[nH]nc1-c1ccc(OCC(F)(F)F)cc1 (centres unmarked)	5 to 20 nM
COc1ccc(-c2c[nH]nc2C2NC(=O)c3cccc(C)c3N2)cc1 (centres unmarked)	< 5 nM
CN1c2ccccc2C(=O)NC1c1n[nH]nc1-c1ccc(Br)cc1 (centres unmarked)	5 to 20 nM
COc1c(F)cc(-c2n[nH]cc2C2NC(=O)c3ccccc3N2C)cc1F (centres unmarked)	5 to 20 nM
CN1c2ccccc2C(=O)NC1c1c[nH]nc1-c1ccc(OCc2ccccc2)cc1 (centres unmarked)	< 5 nM
Cc1cccc2c1NC(c1cn[nH]c1-c1ccc(-c3ccc(N4CCN(C)CC4)cc3)cc1)NC2=O (centres unmarked)	20 to 50 nM
CCCOc1ccc(-c2n[nH]nc2C2NC(=O)c3cccc(C)c3N2)cc1 (centres unmarked)	5 to 20 nM
COC(=O)c1ccc(-c2n[nH]cc2C2NC(=O)c3ccccc3N2C)cc1 (centres unmarked)	5 to 20 nM
CCN1c2ccccc2C(=O)NC1c1c[nH]nc1-c1ccc(OC)cc1 (centres unmarked)	5 to 20 nM
COc1ccc(-c2n[nH]cc2C2NC(=O)c3ccccc3N2CC2CC2)cc1 (centres unmarked)	20 to 50 nM
COc1ccc(-c2n[nH]nc2C2NC(=O)c3cccc(C(F)(F)F)c3N2)cc1 (centres unmarked)	20 to 50 nM
O=C1NC(c2c[nH]nc2-c2ccccc2)Nc2ccccc21 (centres unmarked)	20 to 50 nM
CCOc1ccc(-c2n[nH]nc2C2NC(=O)c3cccc(C)c3N2)cc1 (racemic)	< 5 nM
CCOC(=O)COc1ccc(-c2n[nH]nc2C2NC(=O)c3cccc(C)c3N2)cc1 (centres unmarked)	5 to 20 nM
